Test system: HCI11 (cells of an ER-positive luminal breast cancer xenograft);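 note: PDX cells carrying CMV promoter-driven luciferase, viability read as total photon flux per second by IVIS imaging following D-luciferin, vehicle control 0.1% DMSO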
Test: cell viability (% of vehicle); higher = less cytotoxic
Conditions: 10 µM; 72 h
The threshold is 100. Values of cell viability beneath it are tagged Fulfilled; values meeting or exceeding it are tagged Not fulfilled.

Is the reported cell viability for CCC(NC(=O)C(C)NC)C(=O)N1CC(O)CC1Cc1c(-c2[nH]c3cc(F)ccc3c2CC2CC(O)CN2C(=O)C(CC)NC(=O)C(C)NC)[nH]c2cc(F)ccc12 (stereo unspecified) strictly below 100?
Not fulfilled

Would you mind doing OC[C@@H](O)[C@@H](O)[C@H](O)[C@H](O)CO [D-Mannitol] as well?
Fulfilled

Would you mind doing N#CC(=C1SCC(c2ccc(Cl)cc2Cl)S1)n1ccnc1 (stereo unspecified) [Luliconazole] as well?
Fulfilled

Would you mind doing COc1cc2nccc(Oc3ccc(NC(=O)NC4CC4)c(Cl)c3)c2cc1C(N)=O [Lenvatinib (E7080)] as well?
Fulfilled

Would you mind doing COC(=O)Nc1nc2cc(C(=O)c3ccccc3)ccc2[nH]1 [Mebendazole] as well?
Fulfilled

Would you mind doing CCC1OC(=O)C(C)C(OC2CC(C)(OC)C(O)C(C)O2)C(C)C(OC2OC(C)CC(N(C)C)C2O)C(C)(O)CC(C)C2NC(COCCOC)OC(C2C)C1(C)O (stereo unspecified) [Dirithromycin] as well?
Fulfilled

Would you mind doing Nc1ccc(S(=O)(=O)c2ccc(N)cc2)cc1 [Dapsone] as well?
Not fulfilled

Would you mind doing O=S(=O)(O)NC1CCCCC1 [Cyclamic acid] as well?
Fulfilled

Would you mind doing C#C[C@]1(O)CC[C@H]2[C@@H]3CCC4=CCCC[C@@H]4[C@H]3C(=C)C[C@@]21CC [Desogestrel] as well?
Fulfilled

Would you mind doing Cc1c(Cl)cccc1Nc1ccccc1C(=O)O [Tolfenamic Acid] as well?
Fulfilled

Would you mind doing COCCOC(=O)C1=C(C)NC(C)=C(C(=O)OCC=Cc2ccccc2)C1c1cccc([N+](=O)[O-])c1 (stereo unspecified) [Cilnidipine] as well?
Fulfilled

Would you mind doing OC(Cn1cncn1)(Cn1cncn1)c1ccc(F)cc1F [Fluconazole hydrate] as well?
Fulfilled

Would you mind doing CN(CC=CC#CC(C)(C)C)Cc1cccc2ccccc12 [Terbinafine] as well?
Not fulfilled

Would you mind doing CCCC1CC(C(=O)NC(C(C)Cl)C2OC(SC)C(O)C(O)C2O)N(C)C1.Cl (stereo unspecified) [Clindamycin HCl] as well?
Not fulfilled

Would you mind doing CC(CCc1ccccc1)NCC(O)c1ccc(O)c(C(N)=O)c1.Cl (stereo unspecified) [Labetalol HCl] as well?
Not fulfilled

Would you mind doing Cl.O.O=C1Cc2cc(CCN3CCN(c4nsc5ccccc45)CC3)c(Cl)cc2N1 [Ziprasidone hydrochloride monohydrate] as well?
Fulfilled

Would you mind doing C=C[C@]1(C)C[C@@H](OC(=O)CSC2C[C@H]3CC[C@@H](C2)N3C)[C@]2(C)[C@H](C)CC[C@]3(CCC(=O)[C@H]32)[C@@H](C)[C@@H]1O (stereo partly specified) [Retapamulin] as well?
Fulfilled

Would you mind doing CC(C)Cc1ccc(C(C)C(=O)O)cc1 (stereo unspecified) [Ibuprofen] as well?
Not fulfilled

Would you mind doing CCCC(=O)[O-].[Na+] [Sodium butyrate] as well?
Fulfilled

Would you mind doing Cc1cccc(C)c1NC(=O)C1CCCCN1C.Cl (stereo unspecified) [Mepivacaine HCl] as well?
Fulfilled

Would you mind doing Nc1nc(F)nc2c1ncn2C1OC(CO)C(O)C1O (stereo unspecified) [Fludarabine] as well?
Not fulfilled

Would you mind doing CCN(CCO)CCCC(C)Nc1ccnc2cc(Cl)ccc12.O=S(=O)(O)O (stereo unspecified) [Hydroxychloroquine Sulfate] as well?
Fulfilled

Would you mind doing Nc1ccn(C2CSC(CO)O2)c(=O)n1 (stereo unspecified) [Lamivudine] as well?
Not fulfilled

Would you mind doing CC(C=CC1=C(C)CCCC1(C)C)=CC=CC(C)=CC(=O)O [Isotretinoin] as well?
Not fulfilled

Where these numbers come from: the supplement of paper PMC6992640
